Hello, the source for this data is patent US20150104459A1, in case you need it.

Each entry below lists one item and its recorded Trimeric HA Binding RLU value.
subject.of.test: recombinant soluble homotrimeric HA of A/swine/Ontario/01911-2/99 (H4N6) (Influenza A virus A/Swine/Ontario/01911-2/99 (H4N6))
method.notes: HA microarray, BCC supernatant
measurement.context: remark: other sources report otherwise

See these solved cases before continuing.
binder="TCN-528 (5087_P17) (antibody, V domains shown) VH: QVQLVQSGSEVKKPGASVKVSCKASGYTFTNYDINWIRQAPGQGLEWMGWINPNSGTTGSAQRFQGRVTITVDTSITTVYMELSSLRSDDTAIYYCARGRELLRLQHFLTDSQSERRDCFDPWGQGTLVTVSS VL: DIQMTQSPSSLSASVGDRVTITCRANQDIGIYLNWYQQNPGKVPKLLLHGASSLQGGVPSRFSASGSGTDFTLTIHSLQPEDLATYYCQQSRRLPYTFGQGTRVELK" reported_measurement="47500 RLU"
binder="TCN-557 (5081_A04) (antibody, V domains shown) VH: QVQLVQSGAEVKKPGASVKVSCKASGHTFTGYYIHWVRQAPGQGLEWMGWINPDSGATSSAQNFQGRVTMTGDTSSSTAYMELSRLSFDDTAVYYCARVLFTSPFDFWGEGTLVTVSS VL: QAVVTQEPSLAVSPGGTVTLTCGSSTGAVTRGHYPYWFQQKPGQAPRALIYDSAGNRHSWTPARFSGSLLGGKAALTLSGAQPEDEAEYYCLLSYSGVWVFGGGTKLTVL" reported_measurement="27000 RLU"

Here is another binder to look at.
Prompt: Provide measured Trimeric HA Binding RLU value, entry: TCN-554 (5277_M05) (antibody, V domains shown) VH: QVQLVQSGADLKKPGASVKVSCKASGYTFTDYYIHWVRQAPGQGLEWMGWINPESGDTKYAQKFQGRVTMTRDTSITTAYMELGRLRSDDTAVYYCARDVSTTWSWFAPWGQGTLVTVSS VL: DIVMTQSPDSLAVSLGERATINCRSSQSIFHNSNNENYLAWYQQKPGQPPKLLIYWASTRESGVPDRFSGSGSGTDFTLTISSLQAEDVAVYFCQQYYNAPLTFGGGTKVEIK
Completion: 78 RLU
